Target: human TAS2R4 (Homo sapiens, UniProt Q9NYW5)
Construct: expressed in transfected cells; host or cells: HEK293T-Gα16gust44
Sequence (Q9NYW5 whole entry): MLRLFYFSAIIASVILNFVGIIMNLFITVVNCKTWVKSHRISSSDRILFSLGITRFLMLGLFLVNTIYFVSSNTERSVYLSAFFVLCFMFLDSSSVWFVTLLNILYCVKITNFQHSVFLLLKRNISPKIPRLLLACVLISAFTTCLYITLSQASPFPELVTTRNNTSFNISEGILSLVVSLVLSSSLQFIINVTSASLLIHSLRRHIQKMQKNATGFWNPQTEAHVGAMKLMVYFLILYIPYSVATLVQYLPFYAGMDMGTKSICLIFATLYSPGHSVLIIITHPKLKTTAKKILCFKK
Experiment: Calcium imaging assay (FLIPR), HEK293T-Gα16gust44 cells transfected with human TAS2R4; also: test concentration or dose not given here
Type: cell-based
Details: Time (s) 26.781 (TCA, TLCA: 26.782)
Please provide measured RLU, fluorescence trace for the entries that follow.
Answers are plain numbers, in RLU.

input: Give a short answer stating reported RLU, fluorescence trace for C[C@H](CCC(=O)NCCS(=O)(=O)O)[C@H]1CC[C@H]2[C@@H]3[C@H](O)C[C@@H]4C[C@H](O)CC[C@]4(C)[C@H]3C[C@H](O)[C@]12C .
output: 57.6073

input: Give a short answer stating reported RLU, fluorescence trace for C[C@H](CCC(=O)O)[C@H]1CC[C@H]2[C@@H]3[C@@H](O)C[C@@H]4C[C@H](O)CC[C@]4(C)[C@H]3CC[C@]12C .
output: 47.9642

Further cases:
input: Give a short answer stating reported RLU, fluorescence trace for C[C@H](CCC(=O)O)[C@H]1CC[C@H]2[C@@H]3CC[C@@H]4C[C@H](O)CC[C@]4(C)[C@H]3C[C@H](O)[C@]12C .
output: -9.811

* * *

Please provide measured RLU for the entries that follow.
Molecular target: human TAS2R1 (Homo sapiens)
Construct: expressed in transfected cells; host or cells: HEK293T-Gα16gust44
Sequence (Q9NYW7 whole entry): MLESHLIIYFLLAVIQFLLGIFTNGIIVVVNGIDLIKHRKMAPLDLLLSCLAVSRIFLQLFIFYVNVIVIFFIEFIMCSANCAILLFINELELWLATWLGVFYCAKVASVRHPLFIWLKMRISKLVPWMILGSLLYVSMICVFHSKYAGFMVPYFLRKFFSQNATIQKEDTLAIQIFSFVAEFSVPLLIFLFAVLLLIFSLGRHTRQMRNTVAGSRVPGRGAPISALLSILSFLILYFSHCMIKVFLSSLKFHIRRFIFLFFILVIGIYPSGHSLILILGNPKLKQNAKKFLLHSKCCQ
Assay: Calcium imaging assay (FLIPR), HEK293T-Gα16gust44 cells transfected with human TAS2R1
Format: cell-based
Settings: Time 197.562 s
Numbers only, in RLU.

Use the examples below as a reference point.
input: Give a short answer stating reported RLU for C[C@H](CCC(=O)O)[C@H]1CC[C@H]2[C@@H]3[C@H](O)C[C@@H]4C[C@H](O)CC[C@]4(C)[C@H]3C[C@H](O)[C@]12C .
output: 108.976

input: Give a short answer stating reported RLU for C[C@H](CCC(=O)O)[C@H]1CC[C@H]2[C@@H]3[C@H](O)C[C@@H]4C[C@H](O)CC[C@]4(C)[C@H]3CC[C@]12C .
output: 320.481

input: Give a short answer stating reported RLU for C[C@H](CCC(=O)O)[C@H]1CC[C@H]2[C@@H]3[C@@H](O)C[C@@H]4C[C@H](O)CC[C@]4(C)[C@H]3CC[C@]12C .
output: 63.0668

Would you kindly look at the next entry?
input: Give a short answer stating reported RLU for C[C@H](CCC(=O)O)[C@H]1CC[C@H]2[C@@H]3CC[C@@H]4C[C@H](O)CC[C@]4(C)[C@H]3CC[C@]12C .
output: 487.382

* * *

Biological target: mouse Tas2r105 (Mus musculus)
Construct: expressed in transfected cells; host or cells: HEK293T-Gα16gust44
Sequence (Q9JKT4 whole entry): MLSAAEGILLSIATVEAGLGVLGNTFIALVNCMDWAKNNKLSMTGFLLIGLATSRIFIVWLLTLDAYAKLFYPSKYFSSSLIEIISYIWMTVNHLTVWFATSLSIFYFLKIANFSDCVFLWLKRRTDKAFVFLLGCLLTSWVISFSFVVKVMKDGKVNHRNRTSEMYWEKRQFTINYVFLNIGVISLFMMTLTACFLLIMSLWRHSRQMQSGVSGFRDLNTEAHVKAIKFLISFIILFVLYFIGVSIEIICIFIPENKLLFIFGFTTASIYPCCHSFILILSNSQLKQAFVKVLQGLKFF
Experiment: Calcium imaging assay (FLIPR), HEK293T-Gα16gust44 cells transfected with mouse Tas2r105
Type: cell-based
Settings: Time 28.781 s
Property measured: RLU (RLU)
Give bare numbers, in RLU.

Use the examples below as a reference point.
input: Give a short answer stating reported RLU for C[C@H](CCC(=O)O)[C@H]1CC[C@H]2[C@@H]3CC[C@@H]4C[C@H](O)CC[C@]4(C)[C@H]3C[C@H](O)[C@]12C .
output: 4.903

input: Give a short answer stating reported RLU for C[C@H](CCC(=O)NCC(=O)O)[C@H]1CC[C@H]2[C@@H]3[C@H](O)C[C@@H]4C[C@H](O)CC[C@]4(C)[C@H]3C[C@H](O)[C@]12C .
output: 17.1414

input: Give a short answer stating reported RLU for C[C@H](CCC(=O)O)[C@H]1CC[C@H]2[C@@H]3CC[C@@H]4C[C@H](O)CC[C@]4(C)[C@H]3CC[C@]12C .
output: 5.266

Would you kindly look at the next entry?
input: Give a short answer stating reported RLU for C[C@H](CCC(=O)O)[C@H]1CC[C@H]2[C@@H]3[C@H](O)C[C@@H]4C[C@H](O)CC[C@]4(C)[C@H]3C[C@H](O)[C@]12C .
output: 59.2009
